Molecular target: recombinant human NF-kappaB-inducing Kinase (NIK/MAP3K14) (Homo sapiens, UniProt Q99558)
Sequence (Q99558 whole entry): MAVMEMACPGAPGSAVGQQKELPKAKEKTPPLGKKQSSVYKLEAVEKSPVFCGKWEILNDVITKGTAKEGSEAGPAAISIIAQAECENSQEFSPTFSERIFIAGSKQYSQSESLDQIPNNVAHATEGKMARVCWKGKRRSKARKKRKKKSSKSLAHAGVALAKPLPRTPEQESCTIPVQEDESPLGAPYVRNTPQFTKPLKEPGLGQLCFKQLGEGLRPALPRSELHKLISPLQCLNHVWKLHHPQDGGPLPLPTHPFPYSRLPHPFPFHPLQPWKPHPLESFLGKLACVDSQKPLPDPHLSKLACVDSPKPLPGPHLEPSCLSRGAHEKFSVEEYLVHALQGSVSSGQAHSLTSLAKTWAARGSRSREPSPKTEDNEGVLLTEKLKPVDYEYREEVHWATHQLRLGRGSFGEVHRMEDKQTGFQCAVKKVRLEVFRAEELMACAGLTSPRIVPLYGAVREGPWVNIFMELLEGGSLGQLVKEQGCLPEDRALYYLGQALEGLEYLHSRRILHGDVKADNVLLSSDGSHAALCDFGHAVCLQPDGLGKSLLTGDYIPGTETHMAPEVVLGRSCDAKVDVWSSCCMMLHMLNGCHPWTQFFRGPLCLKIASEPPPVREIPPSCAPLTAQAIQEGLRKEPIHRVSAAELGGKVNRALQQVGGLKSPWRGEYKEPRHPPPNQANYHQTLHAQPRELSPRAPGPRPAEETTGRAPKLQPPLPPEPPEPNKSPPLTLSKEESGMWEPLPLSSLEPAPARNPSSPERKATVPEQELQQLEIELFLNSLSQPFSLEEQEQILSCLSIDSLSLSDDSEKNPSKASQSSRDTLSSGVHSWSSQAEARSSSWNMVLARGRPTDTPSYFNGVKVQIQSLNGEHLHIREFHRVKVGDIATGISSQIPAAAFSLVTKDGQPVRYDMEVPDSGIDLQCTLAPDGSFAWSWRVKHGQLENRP
Experiment: Inhibition of auto-phosphorylation of recombinant human NIK/MAP3K14 activity (AlphaScreen)
Type: biochemical
Conditions: 25 microM ATP, averaged over all measurements on all batches
Protocol: Pharmacological Part Biological assay A Inhibition of auto-phosphorylation of recombinant human NF-kappaB-inducing Kinase (NIK/MAP3K14) Activity (AlphaScreen®) NIK/MAP3K14 auto-phosphorylation activity was measured using the AlphaScreen® (αscreen) format (Perkin Elmer). […] Protein A Acceptor and Glutathione-Donor beads were added before reading using an EnVision® Multilabel Plate Reader (Perkin Elmer). […]
Test readout: IC50 (nM)
Please reply with the bare figure in nM and do not write the unit itself.

Before answering, review these 6 worked examples.
INSERT INTO assay_data (molecule, experimental_target, value_unit, result_number) VALUES
  ('CC1(CO)CNc2c(C#N)cc(-c3ccnc(Nc4cc(Cl)cnc4C(=O)N4CCCC4)n3)cc21 (stereo not shown)', 'recombinant human NF-kappaB-inducing Kinase (NIK/MAP3K14) (Homo sapiens, UniProt Q99558)', 'nM', 93.3),
  ('Cc1cc(Nc2nccc(-c3cc(C#N)c4c(c3)[C@@](C)(CO)CN4)n2)c(=O)n(Cc2nccn2C)c1', 'recombinant human NF-kappaB-inducing Kinase (NIK/MAP3K14) (Homo sapiens, UniProt Q99558)', 'nM', 1.3),
  ('Cc1ncc(C(=O)N2CCN(C)CC2)cc1Nc1nccc(-c2cc(C#N)c3c(c2)[C@@](C)(CO)CN3)n1', 'recombinant human NF-kappaB-inducing Kinase (NIK/MAP3K14) (Homo sapiens, UniProt Q99558)', 'nM', 25.7),
  ('CN(C)C(=O)Cn1cc(Cl)cc(Nc2nccc(-c3cc(C#N)c4c(c3)[C@@](C)(CO)CN4)n2)c1=O [Compound 11i]', 'recombinant human NF-kappaB-inducing Kinase (NIK/MAP3K14) (Homo sapiens, UniProt Q99558)', 'nM', 1.9),
  ('Cc1ncc(Cl)cc1Nc1nccc(-c2cc(C#N)c3c(c2)C(C)(CO)CN3)n1 (stereo not shown)', 'recombinant human NF-kappaB-inducing Kinase (NIK/MAP3K14) (Homo sapiens, UniProt Q99558)', 'nM', 3.6),
  ('COCCOc1ncccc1Nc1ncc(F)c(-c2cc(C#N)c3c(c2)[C@@](C)(CO)CN3)n1', 'recombinant human NF-kappaB-inducing Kinase (NIK/MAP3K14) (Homo sapiens, UniProt Q99558)', 'nM', 3.4);

Field: next molecule
In: Request - read-out IC50 | tested on recombinant human NF-kappaB-inducing Kinase (NIK/MAP3K14) (Homo sapiens, UniProt Q99558) | molecule COCCCc1ccc(Nc2nccc(-c3cc(C#N)c4c(c3)[C@@](C)(CO)CN4)n2)c(OC)n1
Out: 6.9
